System: OVCAR-5 ovarian
Assay: NCI-60 one-dose screen, 48 h (100 = growth as untreated, 0 = no growth, -100 = all killed)
Details: 10 µM
Procedure: Growth inhibition of the OVCAR-5 human tumor cell line is measured as a screen for anti-cancer activity. Cells are grown in 96 well plates and exposed to the test compound for 48 hours. Compounds are tested at a single concentration, which is 10^-5 M for most compounds. The reported endpoint is percent growth (GI% or GIPRCNT), where numbers from 0 - 100% represent growth inhibition, and numbers from -100% - 0 represent cell death. For example, a value of 40 represents 60% growth inhibition. […]
About 83,000 compounds went through this panel and 20% of them were active in at least one assay; those are over-represented in the sample as a whole.
Measured growth, listed per entry.
Numbers only; they are read as %.

Guide cases for growth, answers given:
Cc1[nH]c2ccccc2c1/C=N/Nc1ncnc2sc3c(c12)CCN(CC(=O)OC(C)(C)C)C3 = 130
Cc1ccc(N=Nc2ccccc2)cc1 = 99.7
Cc1ccc(C(=O)C2C(=O)C3CCC2C3)cc1 (stereo unspecified) = 99
CN(C)CCN(Cc1ccccc1)c1ccc2ccccc2n1 = 95
COc1cc(/C=C/c2cc(/C=C/c3ccc(O)c(OC)c3)n(C(=O)Nc3ccc(C)cc3)n2)ccc1O = 20.5

Entry `COc1cc(NC(=O)Nc2cnc(Nc3ccc(N4CCOCC4)cc3)nc2Oc2cccc(OC)c2)cc(OC)c1` — recorded growth = 96.5

* * *

System: UO-31 renal
Assay: NCI-60 one-dose screen, 48 h
Conditions: 10 µM
The panel holds about 83,000 compounds, 20% with a hit somewhere; the sample as a whole holds those more often. The source made the active and inactive calls. Rule for the calls: active = growth percent below 10; inactive = the rest.
Pick from active, inactive when you respond.

// below: answered molecules
Cc1ccc(Cl)cc1NC(=O)CCl = inactive
O=C1CC(SC(=S)C2CCCC2=O)C(=O)N1 (configuration not stated) = inactive
Cc1ccc(-n2nnnc2N)c(C)c1 = inactive

In: Could you kindly confirm the outcome this assay logged for `Nc1ccc(/C=N/Nc2ccnc3c(O)cccc23)c2cccnc12` ?
Out: inactive

In: Could you kindly confirm the outcome this assay logged for `Cn1c2ccccc2c2c3[nH][nH]c(=O)c3c3c4ccccc4[nH]c3c21` ?
Out: active

In: Could you kindly confirm the outcome this assay logged for `CC(C)(C)OC(=O)N1CCc2c(sc3ncnc(N/N=C/c4ccccc4Br)c23)C1` ?
Out: inactive

* * *

System: LOX IMVI melanoma
Experiment: NCI-60 one-dose screen, 48 h
Conditions: 10 µM
This is part of a sample that, as a whole, favours compounds with a hit. Of some 83,000 tested, about 20% had one in any assay. Active and inactive are the calls of the source. Rule for the calls: active = growth percent below 10; inactive = the rest.
Pick from true (1) = active, false (0) = inactive when you respond.

// below: answered molecules
CN1CCN(CCC(=O)Nc2cccc(-n3cc(-c4ccncc4)c(-c4ccc(Cl)c(O)c4)n3)c2)CC1 = false (0)
CCOC(=O)CN(c1sc(C)c(C)c1C(=O)OCC)S(=O)(=O)c1ccc(C)cc1 = false (0)
O=C(CCNC(=O)c1nc(-c2ccccc2)n(-c2ccc(Cl)cc2)n1)NO = false (0)

In: Could you kindly confirm the outcome this assay logged for CC(C)c1ccc(C(C)C(=O)N(CC2=C(C(C)c3ccccn3)c3ccccc3C2)C(C)C)cc1 (centres undefined) ?
Out: false (0)

In: Could you kindly confirm the outcome this assay logged for O=C1CC(SC(=S)C2CCCC2=O)C(=O)N1 (centres undefined) ?
Out: false (0)

All values here come from PubChem BioAssay (NCI).
